Numbers sourced from patent US12162863B2.

target: human STING (Homo sapiens, UniProt Q86WV6)
Sequence (Q86WV6 whole entry H232R): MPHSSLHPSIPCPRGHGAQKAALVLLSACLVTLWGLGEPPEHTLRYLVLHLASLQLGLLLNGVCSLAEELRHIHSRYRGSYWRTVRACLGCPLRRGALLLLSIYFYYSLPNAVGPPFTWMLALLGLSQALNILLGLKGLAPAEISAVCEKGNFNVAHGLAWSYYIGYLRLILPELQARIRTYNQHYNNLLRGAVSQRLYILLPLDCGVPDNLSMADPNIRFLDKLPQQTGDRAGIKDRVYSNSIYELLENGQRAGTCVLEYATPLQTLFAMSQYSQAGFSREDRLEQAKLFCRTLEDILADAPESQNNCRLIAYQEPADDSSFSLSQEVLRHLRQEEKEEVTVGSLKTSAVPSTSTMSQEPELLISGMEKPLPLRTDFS
experimentDescription: Fluorescence Thermal Shift assay
Type: binding
assaySetup: 50 μM compound; STING 0.1 mg/ml; 20 minutes preincubation; read-out: [hSTING] FTS, ΔTm [° C.] for 50 μM
propertyLabel: ΔTm at 50 µM

Here is how some compounds turned out for ΔTm at 50 µM.
| entrySmiles | ΔTm at 50 µM |
| --- | --- |
| Cc1cc(CN(CCCc2cccnc2)Cc2cn(C)c3ccccc3c2=O)ccn1 | > 2.5 °C |
| Cc1oc2ccccc2c(=O)c1CN(CCCn1ccnc1)Cc1ccncc1 | > 2.5 °C |

Query compound follows.
// "O=c1c(CN(CCCn2ccnn2)Cc2ccncc2)coc2cc(Br)ccc12" : ΔTm at 50 µM value = < 2.5 °C
